Quick reference for bioavailability among some molecules
Assay: Oral bioavailability in rat at 2 mg/kg
Type: ADME, organism-based
Conditions: in vivo
Reply with the number and its unit after it.

* O=C(Nc1nc2cc(CN3CCCCC3)ccc2n1[C@H]1CC[C@H](O)CC1)c1cccc([N+](=O)[O-])c1 | 16%
* O=C(Nc1nc2cc(CN3CCCCC3)ccc2n1-c1ccccc1)c1cccc(C(F)(F)F)c1 | 46%
* O=C(Nc1nc2cc(CN3CCCCC3)ccc2n1-c1ccc(CCO)cc1)c1cccc(C(F)(F)F)c1 | 19%

Now for a further molecule.
Prompt line: Bench note: what bioavailability did `O=C(Nc1nc2cc(CN3CCCCC3)ccc2n1[C@H]1CC[C@@H](CO)CC1)c1cccc([N+](=O)[O-])c1` show?
Response line: 10%

----------
Quick reference for pKi among some compounds
Target: Mitogen-activated protein kinase kinase kinase 7 (Homo sapiens, UniProt O43318)
Sequence (O43318 whole entry): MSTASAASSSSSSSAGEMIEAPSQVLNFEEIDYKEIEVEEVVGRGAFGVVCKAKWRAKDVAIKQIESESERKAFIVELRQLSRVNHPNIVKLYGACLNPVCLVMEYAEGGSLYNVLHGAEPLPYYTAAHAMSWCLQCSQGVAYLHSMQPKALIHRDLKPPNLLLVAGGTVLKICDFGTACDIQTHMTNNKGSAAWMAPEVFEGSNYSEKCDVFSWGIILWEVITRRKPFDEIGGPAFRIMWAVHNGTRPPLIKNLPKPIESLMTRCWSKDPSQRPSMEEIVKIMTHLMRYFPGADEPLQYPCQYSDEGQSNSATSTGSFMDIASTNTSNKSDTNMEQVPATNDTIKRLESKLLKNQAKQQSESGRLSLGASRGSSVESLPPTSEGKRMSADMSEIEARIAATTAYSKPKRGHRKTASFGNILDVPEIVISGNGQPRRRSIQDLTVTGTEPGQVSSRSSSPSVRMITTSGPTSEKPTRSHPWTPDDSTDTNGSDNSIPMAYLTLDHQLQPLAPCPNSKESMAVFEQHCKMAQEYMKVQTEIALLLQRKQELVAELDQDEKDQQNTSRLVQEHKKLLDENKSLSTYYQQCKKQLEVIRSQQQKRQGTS
Assay: Inhibition of TAK1 (unknown origin)
The quantity pKi is defined as the negative base-10 logarithm of the molar concentration.

See these solved cases before continuing.
• O=C(Nc1nc2cc(CN3CCCCC3)ccc2n1-c1ccccc1)c1cccc(C(F)(F)F)c1 = 5.60
• O=C(Nc1nc2cc(CN3CCCCC3)ccc2n1[C@H]1CC[C@@H](CO)CC1)c1cccc([N+](=O)[O-])c1 = 7.52
• O=C(Nc1nc2cc(CN3CCCCC3)ccc2n1-c1ccc(CCO)cc1)c1cccc(C(F)(F)F)c1 = 6.15
• CC(C)(C)C(=O)Nc1ccc2c(c1)nc(NC(=O)c1cccc(C(F)(F)F)c1)n2[C@H]1CC[C@@H](CO)CC1 = 5.60

Prompt line: Bench note: what pKi did `O=C(Nc1nc2ccc(CO)cc2n1[C@H]1CC[C@@H](CO)CC1)c1cccc(C(F)(F)F)c1` show?
Response line: 5.89

Prompt line: Bench note: what pKi did `O=C(Nc1nc2cc(CN3CCCCC3)ccc2n1[C@H]1CC[C@H](O)CC1)c1cccc([N+](=O)[O-])c1` show?
Response line: 7.82

Prompt line: Bench note: what pKi did `O=C(Nc1nc2cc(CN3CCCCC3)ccc2n1[C@H]1CC[C@@H](CO)CC1)c1cccc(C(F)(F)F)c1` show?
Response line: 6.89

Prompt line: Bench note: what pKi did `O=C(Nc1nc2cc(CN3CCCCC3)ccc2n1-c1ccccc1)c1cccc([N+](=O)[O-])c1` show?
Response line: 6.10

----------
Quick reference for half-life among some compounds
Test: Half-life in rat at 0.5 mg/kg, iv and 2 mg/kg, po
Type: ADME, organism-based
Details: in vivo
Note: unit h is implicit; provide only the numeric part.

See these solved cases before continuing.
• O=C(Nc1nc2cc(CN3CCCCC3)ccc2n1-c1ccc(CCO)cc1)c1cccc(C(F)(F)F)c1 = 1.3
• O=C(Nc1nc2cc(CN3CCCCC3)ccc2n1[C@H]1CC[C@@H](CO)CC1)c1cccc([N+](=O)[O-])c1 = 4.8
• O=C(Nc1nc2cc(CN3CCCCC3)ccc2n1[C@H]1CC[C@H](O)CC1)c1cccc([N+](=O)[O-])c1 = 2.1

Prompt line: Bench note: what half-life did `O=C(Nc1nc2cc(CN3CCCCC3)ccc2n1-c1ccccc1)c1cccc(C(F)(F)F)c1` show?
Response line: 23.7

----------
Test system: Rattus norvegicus
Assay: AUC in rat at 0.5 mg/kg, iv and 2 mg/kg, po
Type: ADME, organism-based
Conditions: in vivo
ASSAY_METRIC: AUC (ng·h/mL)
Note: unit ng·h/mL is implicit; provide only the numeric part.

See these solved cases before continuing.
* O=C(Nc1nc2cc(CN3CCCCC3)ccc2n1[C@H]1CC[C@@H](CO)CC1)c1cccc([N+](=O)[O-])c1 | 84
* O=C(Nc1nc2cc(CN3CCCCC3)ccc2n1-c1ccc(CCO)cc1)c1cccc(C(F)(F)F)c1 | 175
* O=C(Nc1nc2cc(CN3CCCCC3)ccc2n1[C@H]1CC[C@H](O)CC1)c1cccc([N+](=O)[O-])c1 | 124

Now for a further compound.
Prompt line: Bench note: what AUC did `O=C(Nc1nc2cc(CN3CCCCC3)ccc2n1-c1ccccc1)c1cccc(C(F)(F)F)c1` show?
Response line: 1020
